From: the Deep4Chem optical property database

- Assay Method Text: solvent given as SMILES
- Condition Label: in CCOCC
We use 400 nm as the dividing line for emission maximum: on or above the line is Satisfied, below is Not satisfied.

Line Notation	Label Class
CN(C)c1ccc(C2=Cc3ccc4ccccc4[n+]3[B-](F)(F)O2)cc1	Satisfied
COc1ccc(-c2nc(C(C)=O)c(C)o2)cc1	Not satisfied
COc1nc(Cl)nc(Nc2ccc3c4c(cccc24)C(=O)c2ccccc2-3)n1	Satisfied
c1ccc(-c2ccc(-c3ccc(N(c4ccccc4)c4ccccc4)cc3)c3nsnc23)cc1	Satisfied
COc1ccc(C2=C3C(C)=CC(C)=[N+]3[B-](F)(F)n3c(/C=C/c4ccc(N(C)C)cc4)cc(C)c32)cc1	Satisfied
CN(C)c1ccc(C#Cc2ccc(C#N)cc2)cc1	Satisfied
COc1ccc(/C=C/c2ccccc2)cc1OC	Not satisfied
CC(C)(C)c1ccc(-c2nc3c4ccc(-c5cccc6ccccc56)cc4c4cc(-c5cccc6ccccc56)ccc4c3n2-c2ccc(C(C)(C)C)cc2)cc1	Not satisfied
CCCCCCCCCCCCCCCCCCN1C(=O)c2cccc3c(OCCN(C)C)ccc(c23)C1=O	Satisfied
CC(C)(C)c1ccc(-c2nc3c4ccc(-c5c6ccccc6cc6ccccc56)cc4c4cc(-c5c6ccccc6cc6ccccc56)ccc4c3n2-c2ccc(C(C)(C)C)cc2)cc1	Satisfied
COc1ccc(C2=C3C=c4c(oc5cc6c(cc45)[C@H]4CC[C@]5(C)C(=O)CC[C@H]5[C@@H]4CC6)=[N+]3[B-](F)(F)n3c2cc2c4cc5c(cc4oc23)CC[C@@H]2[C@@H]5CC[C@]3(C)C(=O)CC[C@@H]23)cc1	Satisfied
CC(C)(C)c1ccc(-c2nc3c4ccc(-c5cc6ccccc6c6ccccc56)cc4c4cc(-c5cc6ccccc6c6ccccc56)ccc4c3n2-c2ccc(C(C)(C)C)cc2)cc1	Not satisfied
c1ccc(-c2ccc(-c3ccc(-n4c5ccccc5c5ccccc54)cc3)c3nsnc23)cc1	Satisfied
CCCCCCC(CCCCCC)n1c(=O)c2c3ccc4cccc5c6cccc7ccc(c2c1=O)c(c76)c3c45	Satisfied

* * *

Overview of reported emission maximum across a group of compounds:
- Assay Method Text: solvent given as SMILES
- Condition Label: in ClCCl

Compound	emission maximum / nm
CN(C)c1ccc(C2=CC3=C(c4ccc(C#N)cc4)[C@H]4c5ccccc5[C@]3(S2)c2ccccc24)cc1	599
CCCCC(CC)Cn1c2cc(C#N)ccc2c2ccc(C#Cc3cc(C#Cc4ccc5c6ccc(C#N)cc6n(CC(CC)CCCC)c5c4)c4ccc5c(C#Cc6ccc7c8ccc(C#N)cc8n(CC(CC)CCCC)c7c6)cc(C#Cc6ccc7c8ccc(C#N)cc8n(CC(CC)CCCC)c7c6)c6ccc3c4c65)cc21 (stereo unspecified)	486
Cc1ccc(/C=N/c2cc(C(C)C)c(O)cc2C)cc1	415
COCCOCCOCCOc1ccc(/C=C/C2=[N+]3C(=C(c4cc(OC)cc(OC)c4)c4c(C)c(I)c(/C=C/c5ccc(OCCOCCOCCOC)cc5)n4[B-]3(F)F)C(C)=C2I)cc1	687
CCCCn1c(-c2ccc(-c3nnc(-c4ccc(-c5nc6c7ccccc7c7ccccc7c6n5CCCC)cc4)o3)cc2)nc2c3ccccc3c3ccccc3c21	451
COc1ccc(C2=C(C)C3=C(c4c(-c5ccccn5)nc5ccccn45)c4c(C)cc(C)n4[B-](F)(F)[N+]3=C2C)cc1	592
Oc1ccc2ccccc2c1-c1nc(-c2ccccc2)c2ccccn12	467
Cc1c(C(=O)c2ccc(C(F)(F)F)cc2)c2ccc3cccc4c5cccc6ccc1c(c65)c2c34	545
Cc1ccc(-c2cc(/C=C/c3ccc(N(c4ccccc4)c4ccccc4)cc3)c(-c3ccc(C)cc3)cc2/C=C/c2ccc(N(c3ccccc3)c3ccccc3)cc2)cc1	492
CN1c2ccc3c(c2-c2ccccc2S1(=O)=O)-c1ccccc1S(=O)(=O)N3C	443
CCN1C(=O)C(C2C(=O)c3c4ccccc4cc4cc5ccccc5c2c34)SC1=S (stereo unspecified)	582
O=C1NC(=O)c2c1c1c3ccccc3[nH]c1c1[nH]c3ccccc3c21	492
CN(C)c1ccc(C#Cc2ncnc3ccccc23)cc1	560
C[Si]1(C)O[Si](C)(C)c2cc3nc4ccccc4c(-c4ccccc4)c3cc2[Si](C)(C)O1	501
CCN(CC)c1ccc(/C=N/c2cc3nc4ccccc4nc3cc2/N=C/c2ccc(N(CC)CC)cc2O)c(O)c1	568
CC(C)(C)c1ccc2c(c1)c1cc(C(C)(C)C)ccc1n2-c1ccc(N(c2ccc(-c3ccc(-c4ccc(N(c5ccc(-n6c7ccc(C(C)(C)C)cc7c7cc(C(C)(C)C)ccc76)cc5)c5ccc(-n6c7ccc(C(C)(C)C)cc7c7cc(C(C)(C)C)ccc76)cc5)cc4)s3)cc2)c2ccc(-n3c4ccc(C(C)(C)C)cc4c4cc(C(C)(C)C)ccc43)cc2)cc1	465
CN(C)c1ccc(-c2cc(-c3ccccc3)nn2C)cc1	365
COc1ccc(-c2cc3c(ccc4sc5ccc6sc(-c7ccc(C(C)=O)cc7)cc6c5c43)s2)cc1	477
CC1=N/C(=C\c2ccccc2N(C)C)C(=O)N1C	535
CC1(C)c2ccccc2N(c2ccc(-c3nc(-c4ccccn4)n(-c4ccc(N5c6ccccc6C(C)(C)c6ccccc65)cc4)n3)cc2)c2ccccc21	445
CC1=C(c2ccccc2)Oc2cc3nc4ccccc4nc3c3cccc1c23	554
CCCCCCCCCCCCN1C(=O)c2cccc3c(N(Cc4ccccn4)Cc4ccccn4)c4ccccc4c(c23)C1=O	587
CN(C)/C=N\c1ccc2c3c(cccc13)C(=O)c1ccccc1-2	593
CCOC(=O)c1c(-c2cc3ccccc3oc2=O)nn(-c2ccc(Cl)cc2)c1C(=O)OCC	402
CCCN1C(=O)c2c3c(c4c(c2C1=O)CCc1cc(-c2ccc(N(C)C)cc2)c(OC)cc1-4)-c1cc(OC)c(-c2ccc(N(C)C)cc2)cc1CC3	613
Fc1ccc(-c2cc3c4c(c2)CCc2cc(-c5ccc(F)cc5)cc(c2-4)CC3)cc1	378.91
COc1cc(OC)cc(C2=C3C(C)=C(I)C(/C=C/c4c[nH]c5ccccc45)=[N+]3[B-](F)(F)n3c(/C=C/c4c[nH]c5ccccc45)c(I)c(C)c32)c1	735
COC(=O)c1cc(=O)n(Cc2ccccc2)c2cc(-c3ccc(OC)cc3)sc12	474
CCC1(CC)c2cc(/C=C/c3cc(C#N)c(/C=C/c4ccc5c(c4)C(CC)(CC)c4cc(N6c7ccccc7Sc7ccccc76)ccc4-5)cc3C#N)ccc2-c2ccc(N3c4ccccc4Sc4ccccc43)cc21	520
S=P1(c2ccccc2)c2cccc3c4c5ccccc5c5ccccc5c4c4ccc1n4c23 (stereo unspecified)	493
CN(C)c1ccc(C2=Nc3scc[n+]3[B-](F)(F)O2)cc1	453
